- method-notes: RP, Agilent ZORBAX Eclipse XDB-C18, 100 × 2.1 mm, 1.8 µm, 50 °C, 0.4 mL/min, estimated dead time 0.55 min; A: water + 0.1% formic acid; B: methanol; gradient (min/%B) 0/30 2/30 5/52 15/65 20/78 22.5/78 29/90 38/100
- run-conditions: stereoisomer not certain
assay-readout: LC retention time (min)

>>> df
                                   compound      assay_readout  recorded_value
0  NC(N)=NCCCC(N)C(=O)O (configuration not stated)  LC retention time            3.02
1                      CCCCCCCCCCCCCCC(=O)O  LC retention time            28.4
2   NC(CO)C(=O)O (configuration not stated)  LC retention time            5.14
3  CC(CCC(=O)O)C1CCC2C3C(O)CC4CC(O)CCC4(C)C3CCC12C (configuration not stated)  LC retention time            24.9
4  NCCCCC(N)C(=O)O (configuration not stated)  LC retention time            16.2
5  CC(CCC(=O)O)C1CCC2C3C(O)CC4CC(O)CCC4(C)C3CC(O)C12C (configuration not stated)  LC retention time            24.2
6             CCCCCC=CCC=CCC=CCC=CCCCC(=O)O  LC retention time            28.7
7                  CCCCCCCCCCCCCCCCCCC(=O)O  LC retention time            32.1

P = CCCCCCC=CCCCCCCCC(=O)O
Q = NCCO
I'm curious whether P or Q has the smaller LC retention time number. Which is it? # reply format: chosen label
Q

P = CSCCC(N)C(=O)O (configuration not stated)
Q = CCC=CCC=CCC=CCCCCCCCC(=O)O
Select the item with the higher value of LC retention time from the options P and Q listed. Response format: the label of the selected entry.
Q
(Q: 27.5 min, P: 9.06 min)

a = CCCCCCCCC(=O)O
b = NC(Cc1cnc[nH]1)C(=O)O (configuration not stated)
Which shows the larger LC retention time value: a or b ? Field: selected label. Fill in the label of the entry you choose.
a

P = COc1cc2c(CCNC(C)=O)c[nH]c2cc1O
Q = CC(N)C(=O)O (configuration not stated)
R = CCCCCCCCCCCCCCCCCCCCC(=O)O
Parameters: sort_field (LC retention time), sort_dir (desc). Respond with an ordered listing of the labels, as requested.
R, P, Q

###

- method-notes: RP, Agilent ZORBAX Eclipse XDB-C18, 100 × 2.1 mm, 1.8 µm, 50 °C, 0.4 mL/min, estimated dead time 0.55 min; A: water + 0.1% formic acid; B: methanol; gradient (min/%B) 0/30 2/30 5/52 15/65 20/78 22.5/78 29/90 38/100
- run-conditions: stereoisomer not certain
assay-readout: LC retention time (min)

>>> print(df.to_string())
                         molecule  recorded_value
0                   CC(C)CCC(=O)O            17.1
1                      CCCCC(=O)O            14.5
2                         CC(=O)O            8.11
3  CCCCCCCCC=CCCCCCCCCCCCCCC(=O)O            34.2
4             CCCCCCCCCCCCCC(=O)O            27.3

1 = CCC(C)C(N)C(=O)O (stereo not given)
2 = CCCCC(C)C(=O)O (stereo not given)
Looking at 1 and 2 , which one comes out lower in LC retention time terms? Kindly state the label of the option you pick.
1
(1: 11.4 min, 2: 18.9 min)

Source of measurements: the RepoRT retention time repository (doi:10.1016/j.aca.2019.02.001)
